Below: a set of entries, each annotated with reported viability at 24 h, 10 µg/mL.
Experiment: Cytotoxicity against glioblastoma cells (MTT)
Assay type: cell-based, human
Conditions: human, T98G glioblastoma cells, 10 µg/mL, MTT, read-out: Viability of T98G cells (% of control ± SD)
Please give a number only; it is taken to be in %.

compound: Cn1nnc2c(C(N)=O)ncn2c1=O [Temozolomide, reference compound]
experimental.result: 66.6

// below: viability at 24 h, 10 µg/mL requested for another compound
Q: Sample COc1ccc(-n2c(-c3[nH]cnc3C)n[nH]c2=S)cc1 [20b] — what was its viability at 24 h, 10 µg/mL?
A: 94.2

Source of measurements: paper PMC9518248
